Each recorded value in this set is attributed to patent US20210196796A1.

Molecular target: T1, orthogonal hCD122 receptor (hoRb), hCD122 with H133D and Y134F (human, UniProt P14784 27-550); note: reference of the scale not given here
T1 sequence: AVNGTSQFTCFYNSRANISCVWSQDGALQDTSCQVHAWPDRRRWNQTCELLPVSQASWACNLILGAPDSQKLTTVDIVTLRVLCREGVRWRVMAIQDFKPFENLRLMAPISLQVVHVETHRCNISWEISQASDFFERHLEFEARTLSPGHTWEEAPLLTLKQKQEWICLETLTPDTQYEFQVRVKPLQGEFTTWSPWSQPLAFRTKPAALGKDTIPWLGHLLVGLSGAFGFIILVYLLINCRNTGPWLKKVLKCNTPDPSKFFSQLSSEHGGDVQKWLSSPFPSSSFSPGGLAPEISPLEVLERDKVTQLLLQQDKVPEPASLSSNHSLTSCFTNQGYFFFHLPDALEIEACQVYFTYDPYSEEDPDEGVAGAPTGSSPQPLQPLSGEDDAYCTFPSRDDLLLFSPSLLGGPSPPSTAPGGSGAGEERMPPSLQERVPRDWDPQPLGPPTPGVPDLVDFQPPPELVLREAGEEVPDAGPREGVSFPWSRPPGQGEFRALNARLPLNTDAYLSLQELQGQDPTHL
Test: cell-based or functional assay
What Relative Proliferation Fold Change NKL 1:2 was measured for each of the following?
Give bare numbers, in fold.

Example binders with recorded Relative Proliferation Fold Change NKL 1:2:
SQVLLA (ligand) APTSSSTKKTQLQLSQLLVLLLAILNGINNYKNPKLTRMLTFKFYMPKKATELKHLQCLEEELKPLEEVLNLAQSKNFHLRPRDLISNINVIVLELKGSETTFMCEYADETATIVEFLNRWITFCQSIISTLT | 1.5
L80F, SQVLKA (ligand) APTSSSTKKTQLQLSQLLVLLKAILNGINNYKNPKLTRMLTFKFYMPKKATELKHLQCLEEELKPLEEVLNLAQSKNFHFRPRDLISNINVIVLELKGSETTFMCEYADETATIVEFLNRWITFCQSIISTLT | 4.24
SQVLKW (ligand) APTSSSTKKTQLQLSQLLVLLKWILNGINNYKNPKLTRMLTFKFYMPKKATELKHLQCLEEELKPLEEVLNLAQSKNFHLRPRDLISNINVIVLELKGSETTFMCEYADETATIVEFLNRWITFCQSIISTLT | 3.55
SQVLKT (ligand) APTSSSTKKTQLQLSQLLVLLKTILNGINNYKNPKLTRMLTFKFYMPKKATELKHLQCLEEELKPLEEVLNLAQSKNFHLRPRDLISNINVIVLELKGSETTFMCEYADETATIVEFLNRWITFCQSIISTLT | 4.68

// each binder listed below needs its Relative Proliferation Fold Change NKL 1:2
1. V91K, SQVLKA (ligand) APTSSSTKKTQLQLSQLLVLLKAILNGINNYKNPKLTRMLTFKFYMPKKATELKHLQCLEEELKPLEEVLNLAQSKNFHLRPRDLISNINKIVLELKGSETTFMCEYADETATIVEFLNRWITFCQSIISTLT
2. Q74H, SQVLKA (ligand) APTSSSTKKTQLQLSQLLVLLKAILNGINNYKNPKLTRMLTFKFYMPKKATELKHLQCLEEELKPLEEVLNLAHSKNFHLRPRDLISNINVIVLELKGSETTFMCEYADETATIVEFLNRWITFCQSIISTLT
3. ΔH16, S_VLKA (ligand) APTSSSTKKTQLQLSLLVLLKAILNGINNYKNPKLTRMLTFKFYMPKKATELKHLQCLEEELKPLEEVLNLAQSKNFHLRPRDLISNINVIVLELKGSETTFMCEYADETATIVEFLNRWITFCQSIISTLT
4. SQVLNA (ligand) APTSSSTKKTQLQLSQLLVLLNAILNGINNYKNPKLTRMLTFKFYMPKKATELKHLQCLEEELKPLEEVLNLAQSKNFHLRPRDLISNINVIVLELKGSETTFMCEYADETATIVEFLNRWITFCQSIISTLT
5. SQVLKS (ligand) APTSSSTKKTQLQLSQLLVLLKSILNGINNYKNPKLTRMLTFKFYMPKKATELKHLQCLEEELKPLEEVLNLAQSKNFHLRPRDLISNINVIVLELKGSETTFMCEYADETATIVEFLNRWITFCQSIISTLT

Resp:
[0.74, 3.89, 1.32, 4.55, 4.79]

// each binder listed below needs its Relative Proliferation Fold Change NKL 1:2
1. SQVLKY (ligand) APTSSSTKKTQLQLSQLLVLLKYILNGINNYKNPKLTRMLTFKFYMPKKATELKHLQCLEEELKPLEEVLNLAQSKNFHLRPRDLISNINVIVLELKGSETTFMCEYADETATIVEFLNRWITFCQSIISTLT
2. SQVLAA (ligand) APTSSSTKKTQLQLSQLLVLLAAILNGINNYKNPKLTRMLTFKFYMPKKATELKHLQCLEEELKPLEEVLNLAQSKNFHLRPRDLISNINVIVLELKGSETTFMCEYADETATIVEFLNRWITFCQSIISTLT

Resp:
[3.51, 1.05]

// each binder listed below needs its Relative Proliferation Fold Change NKL 1:2
1. SQVLKV (ligand) APTSSSTKKTQLQLSQLLVLLKVILNGINNYKNPKLTRMLTFKFYMPKKATELKHLQCLEEELKPLEEVLNLAQSKNFHLRPRDLISNINVIVLELKGSETTFMCEYADETATIVEFLNRWITFCQSIISTLT
2. D109C, SQVLKA (ligand) APTSSSTKKTQLQLSQLLVLLKAILNGINNYKNPKLTRMLTFKFYMPKKATELKHLQCLEEELKPLEEVLNLAQSKNFHLRPRDLISNINVIVLELKGSETTFMCEYACETATIVEFLNRWITFCQSIISTLT
3. H55Y, SQVLKA (ligand) APTSSSTKKTQLQLSQLLVLLKAILNGINNYKNPKLTRMLTFKFYMPKKATELKYLQCLEEELKPLEEVLNLAQSKNFHLRPRDLISNINVIVLELKGSETTFMCEYADETATIVEFLNRWITFCQSIISTLT

Resp:
1: 4.61; 2: 4.2; 3: 3.72
